Biological target: T1, human MSLN-FL-his protein (human, UniProt Q13421 296-580)
T1 construct: Made in HEK293E cells, purified on nickel column; also called hMSLN-FL-his; human MSLN full-length protein; not shown: His tag
T1 sequence (Q13421 other isoform, or with tags, fused parts or gaps): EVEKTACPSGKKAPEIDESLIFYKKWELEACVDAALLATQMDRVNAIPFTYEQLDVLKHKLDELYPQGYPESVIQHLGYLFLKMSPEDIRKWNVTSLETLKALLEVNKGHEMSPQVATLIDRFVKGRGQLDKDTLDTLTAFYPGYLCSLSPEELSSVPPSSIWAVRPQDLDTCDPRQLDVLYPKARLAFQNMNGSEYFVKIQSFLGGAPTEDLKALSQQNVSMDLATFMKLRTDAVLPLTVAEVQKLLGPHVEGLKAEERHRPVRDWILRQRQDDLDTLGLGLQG
Assay: ELISA, coated antigen, antibody 2 nM
Consider the following binders; for each one, report its OD450.

| binder | OD450 |
| --- | --- |
| S009-F7.65.13 chimeric antibody (antibody, human IgG1, kappa, V domains shown, Human-murine chimeric antibody, human IgG1/kappa constant regions) VH: EVQLQQSGPELVKPGTSVKILCKASGDTFTAYNMDWVKQRHGQSLEWIGDINPNTDSTIYNQKFEGKAILTVDKSSSTAYMELRSLTSEDTAVYYCARRKLGRGYFDYWGQGTTLTVSS VL: QIVLTQSPAIMSASPGEKVTMTCSVNLSVRYIYWYQQKPGSSPRLLIHDTSNLASGVPVRFSGSGSGTSYSLTISRMEAEDAATYYCQQWSSFPYTFGGGTKLEIKR | 2.11 |

// batch mode: one OD450 value per listed entry
1. S009-F7.30.5 chimeric antibody (antibody, human IgG1, kappa, V domains shown, Human-murine chimeric antibody, human IgG1/kappa constant regions) VH: QVQLQQPKTELVKPGASVKLSCKASGYIFTTYWMHWVKQRPGQGLEWIGNVNPSNGGTMYNEKFERRATLTVDKSSSTADMQLSSLTSEDSAVYYCVPHYIGSRPGFAYWGQGTLVTVSG VL: DIVMTQSQKFMSTSVGDRVSVTCKASQNVGTNVAWYQHKPGQSPKALLYSASYRYSGVPDRFTGSGSGTDFTLTITNVQSEDLAEYFCQQYNSYPLTFGGGTKLEIKR
2. S009-F7.23.19 chimeric antibody (antibody, human IgG1, kappa, V domains shown, Human-murine chimeric antibody, human IgG1/kappa constant regions) VH: EVKLVESGGGLVQPGGSLSLSCAASGFTFTDYYMSWVRQPPGKALEWLGFIRSKANAYTTEYSASVKGRFTISRDNSQSILYLQMNDLRAEDSATYYCARYYYYGSGYVWYFDVWGTGTTVTVSS VL: DIVMTQSQKFMSTSVGDRVSVTCKASQSVGTNVAWYQQKPGQFPKALIYSASYRYSGVPDRFTGSGSGTDFTLTIINVQSEDLAEYFCQQYNSYPLTFGAGTKLELKR

Data returned:
2.41
2.4

Data credit: patent US20250250357A1
